Value source: paper PMC12147034

test: In vivo pharmacokinetics in rats; set-up: species or system rat; details: male, Sprague-Dawley, plasma; Rat, PO, 20 mg kg^-1
EXPERIMENTAL READOUT: Cmax (ng/mL)
Give just the numeric value; ng/mL need not be written.

Ask | // lookup Cmax for CN1CCN(Cc2ccc(NC(=O)c3cncc(C#Cc4cnc5cccnn45)c3)cc2C(F)(F)F)CC1
Reply | 911

* * *

assay: In vivo pharmacokinetics in rats; design: species or system rat; conditions: male, Sprague-Dawley, plasma; Rat, IV, 2 mg kg^-1; read-out: Vss
EXPERIMENTAL READOUT: Vd (L/kg)
Response body: numeric value in L/kg, unit text excluded.

Ask | # input molecule: Cc1n[nH]c2ncc(C#Cc3cncc(C(=O)Nc4ccc(CN5CCN(C)CC5)c(C(F)(F)F)c4)c3)cc12 [HSND19] ; wanted: its Vd
Reply | 7.1

* * *

tested on: BaF3/TEL-VEGFR2 (B/TV) cells; assay: Cell viability assay (CellTiter-Glo, 3 days) in B/TV cells; assay type: cell-based; conditions: ratio of B/TV IC50 to B/KR WT IC50
Recorded VEGFR2/RET (fold) for the following molecules
The figure you give is taken to be in fold; do not add the unit.

The cases that follow already have their VEGFR2/RET (fold) on record.
> print(dat)
                                   molecule                   measured.on  unit.name  obs.value
1  CN1CCN(Cc2ccc(NC(=O)c3cncc(C#Cc4cnc5cccnn45)c3)cc2C(F)(F)F)CC1  BaF3/TEL-VEGFR2 (B/TV) cells       fold       1.81
2  COc1cc2cc(-c3ccc(CC(=O)Nc4cc(C(C)(C)C(F)(F)F)no4)cn3)cnc2cc1OC [Zeteletinib, reference compound]  BaF3/TEL-VEGFR2 (B/TV) cells       fold      49.04

Ask | Would you kindly share the measured VEGFR2/RET (fold) for Cc1n[nH]c2ncc(C#Cc3cncc(C(=O)Nc4ccc(CN5CCN(C)CC5)c(C(F)(F)F)c4)c3)cc12 ?
Reply | 2.85

Ask | Name the reported VEGFR2/RET (fold) value associated with the molecule CCOc1ccc2ncc(C#Cc3cncc(C(=O)Nc4ccc(CN5CCN(C)CC5)c(C(F)(F)F)c4)c3)n2n1
Reply | 1.71

* * *

Assay: In vivo pharmacokinetics and brain distribution in mice
Conditions: male, CD1, plasma; Mouse, IV, 2 mg kg^-1; read-out: AUCPlasma
Experimental: For compound HSND19, male SD rats received an intravenous (IV) dose of 2 mg kg^−1 and an oral (PO) dose of 10 mg kg^−1. Both formulations were prepared in 10% DMSO/90% (20% HP-β-CD in water, w/w). […] The mean concentration-time profiles were analyzed using Phoenix WinNonlin (version 8.4; Certara USA, Inc., Princeton, NJ) to calculate standard PK parameters, including the area under the curve from zero to infinity (AUC), bioavailability (F), clearance, volume of distribution, and half-life (t1/2).
EXPERIMENTAL READOUT: AUC (ng·h/mL)
Your answer should be a plain number; it is taken to be in ng·h/mL.

Ask | I have this compound here, CN1CCN(Cc2ccc(NC(=O)c3cncc(C#Cc4cnc5cccnn45)c3)cc2C(F)(F)F)CC1 , and I need its recorded AUC.
Reply | 907

* * *

Assay: In vivo pharmacokinetics in rats
Design: species or system rat
Conditions: male, Sprague-Dawley, plasma; Rat, IV, 2 mg kg^-1; read-out: Tmax
Description: For compound HSND19, male SD rats received an intravenous (IV) dose of 2 mg kg^−1 and an oral (PO) dose of 10 mg kg^−1. Both formulations were prepared in 10% DMSO/90% (20% HP-β-CD in water, w/w). […] The mean concentration-time profiles were analyzed using Phoenix WinNonlin (version 8.4; Certara USA, Inc., Princeton, NJ) to calculate standard PK parameters, including the area under the curve from zero to infinity (AUC), bioavailability (F), clearance, volume of distribution, and half-life (t1/2).
EXPERIMENTAL READOUT: Tmax (min)
Quick note: give the figure in min, leave out the unit.

Ask | Which Tmax is reported for this molecule? Cc1n[nH]c2ncc(C#Cc3cncc(C(=O)Nc4ccc(CN5CCN(C)CC5)c(C(F)(F)F)c4)c3)cc12 [HSND19]
Reply | 15

* * *

test: In vivo pharmacokinetics in rats; set-up: species or system rat; details: male, Sprague-Dawley, brain and plasma; Rat, IV, 2 mg kg^-1; read-out: brain-to-plasma partition coefficient (Kp), AUCbrain/AUCPlasma
EXPERIMENTAL READOUT: Kp
Form: value (number only, do not type unit).

Ask | Query (compound): Cc1n[nH]c2ncc(C#Cc3cncc(C(=O)Nc4ccc(CN5CCN(C)CC5)c(C(F)(F)F)c4)c3)cc12 ; field requested: Kp
Reply | 0.2

* * *

experiment: In vivo pharmacokinetics in rats; parameters: species or system rat; details: male, Sprague-Dawley, rat, plasma, po, 10 mg/kg, 10 mg kg^-1
EXPERIMENTAL READOUT: bioavailability

Ask | Any idea what bioavailability was measured for Cc1n[nH]c2ncc(C#Cc3cncc(C(=O)Nc4ccc(CN5CCN(C)CC5)c(C(F)(F)F)c4)c3)cc12 ?
Reply | ~25%

* * *

assay: In vivo pharmacokinetics in rats; parameters: species or system rat; conditions: male, Sprague-Dawley, plasma; Rat, PO, 100 mg kg^-1
EXPERIMENTAL READOUT: Cmax (ng/mL)
Report as a plain number; the unit ng/mL is understood.

Ask | Would you kindly share the measured Cmax for CN1CCN(Cc2ccc(NC(=O)c3cncc(C#Cc4cnc5cccnn45)c3)cc2C(F)(F)F)CC1 ?
Reply | 3330

* * *

experiment: In vivo pharmacokinetics in rats; design: species or system rat; conditions: male, SD, plasma; Rat, PO, 20 mg kg^-1; read-out: AUCPlasma (converted)
EXPERIMENTAL READOUT: AUC (ng·h/mL)
Entry rule: numbers only, all in ng·h/mL.

Ask | Quick one: AUC for CN1CCN(Cc2ccc(NC(=O)c3cncc(C#Cc4cnc5cccnn45)c3)cc2C(F)(F)F)CC1 ?
Reply | 7520

* * *

tested on: B/KR(G810C/R/S) cells; assay: Cell viability assay, RET solvent-front mutants stated jointly; assay type: cell-based; conditions: read-out: IC50s for B/KR(G810C/R/S) cells; stated jointly for G810C, G810R and G810S
EXPERIMENTAL READOUT: IC50

Reference set, count: 2
> print(dat)
                                     smiles  obs.value
1  Cc1n[nH]c2ncc(C#Cc3cncc(C(=O)Nc4ccc(CN5CCN(C)CC5)c(C(F)(F)F)c4)c3)cc12    < 33 nM
2  CCOc1ccc2ncc(C#Cc3cncc(C(=O)Nc4ccc(CN5CCN(C)CC5)c(C(F)(F)F)c4)c3)n2n1    < 33 nM

Ask | # lookup: IC50 of CN1CCN(Cc2ccc(NC(=O)c3cncc(C#Cc4cnc5cccnn45)c3)cc2C(F)(F)F)CC1
Reply | < 33 nM

* * *

assay: In vivo pharmacokinetics in rats; parameters: species or system rat; conditions: male, Sprague-Dawley, plasma; Rat, PO, 10 mg kg^-1
EXPERIMENTAL READOUT: Cmax (ng/mL)
Give the value in ng/mL but do not write ng/mL after it.

Ask | So what does the record say about Cmax for Cc1n[nH]c2ncc(C#Cc3cncc(C(=O)Nc4ccc(CN5CCN(C)CC5)c(C(F)(F)F)c4)c3)cc12 ?
Reply | 182

* * *

Assay: In vivo pharmacokinetics in rats
Design: species or system rat
Details: male, Sprague-Dawley, rat, plasma, po, 10 mg/kg, Rat, PO, 10 mg kg^-1; read-out: t1/2 (converted)
Procedure: For compound HSND19, male SD rats received an intravenous (IV) dose of 2 mg kg^−1 and an oral (PO) dose of 10 mg kg^−1. Both formulations were prepared in 10% DMSO/90% (20% HP-β-CD in water, w/w). […] The mean concentration-time profiles were analyzed using Phoenix WinNonlin (version 8.4; Certara USA, Inc., Princeton, NJ) to calculate standard PK parameters, including the area under the curve from zero to infinity (AUC), bioavailability (F), clearance, volume of distribution, and half-life (t1/2).
EXPERIMENTAL READOUT: half-life (h)
Note: unit h is implicit; provide only the numeric part.

Ask | What value of measured half-life is listed for Cc1n[nH]c2ncc(C#Cc3cncc(C(=O)Nc4ccc(CN5CCN(C)CC5)c(C(F)(F)F)c4)c3)cc12 ?
Reply | 3.6

* * *

assay: In vivo pharmacokinetics in rats; set-up: species or system rat; conditions: male, Sprague-Dawley, plasma; Rat, PO, 100 mg kg^-1; read-out: Vss/F
EXPERIMENTAL READOUT: Vd/F (L/kg)
Hi! Could you send only the number? It should be in L/kg, unit omitted.

Ask | I am curious: what Vd/F value has been reported for CN1CCN(Cc2ccc(NC(=O)c3cncc(C#Cc4cnc5cccnn45)c3)cc2C(F)(F)F)CC1 ?
Reply | 28.9
